The reported measurements were obtained from patent US20230079819A1.

Here the recorded IC50 is given for each entry.
molecular target: BRM (Homo sapiens); construct: made in house; host or cells: High Five insect cells; test: ATPase catalytic activity of BRM, ADP-Glo in vitro biochemical assay; settings: ATPase catalytic activity, 30 nM BRM, 400 μM ATP, read-out: BRM IP50 (μM)*
Sequence (P51531 whole entry): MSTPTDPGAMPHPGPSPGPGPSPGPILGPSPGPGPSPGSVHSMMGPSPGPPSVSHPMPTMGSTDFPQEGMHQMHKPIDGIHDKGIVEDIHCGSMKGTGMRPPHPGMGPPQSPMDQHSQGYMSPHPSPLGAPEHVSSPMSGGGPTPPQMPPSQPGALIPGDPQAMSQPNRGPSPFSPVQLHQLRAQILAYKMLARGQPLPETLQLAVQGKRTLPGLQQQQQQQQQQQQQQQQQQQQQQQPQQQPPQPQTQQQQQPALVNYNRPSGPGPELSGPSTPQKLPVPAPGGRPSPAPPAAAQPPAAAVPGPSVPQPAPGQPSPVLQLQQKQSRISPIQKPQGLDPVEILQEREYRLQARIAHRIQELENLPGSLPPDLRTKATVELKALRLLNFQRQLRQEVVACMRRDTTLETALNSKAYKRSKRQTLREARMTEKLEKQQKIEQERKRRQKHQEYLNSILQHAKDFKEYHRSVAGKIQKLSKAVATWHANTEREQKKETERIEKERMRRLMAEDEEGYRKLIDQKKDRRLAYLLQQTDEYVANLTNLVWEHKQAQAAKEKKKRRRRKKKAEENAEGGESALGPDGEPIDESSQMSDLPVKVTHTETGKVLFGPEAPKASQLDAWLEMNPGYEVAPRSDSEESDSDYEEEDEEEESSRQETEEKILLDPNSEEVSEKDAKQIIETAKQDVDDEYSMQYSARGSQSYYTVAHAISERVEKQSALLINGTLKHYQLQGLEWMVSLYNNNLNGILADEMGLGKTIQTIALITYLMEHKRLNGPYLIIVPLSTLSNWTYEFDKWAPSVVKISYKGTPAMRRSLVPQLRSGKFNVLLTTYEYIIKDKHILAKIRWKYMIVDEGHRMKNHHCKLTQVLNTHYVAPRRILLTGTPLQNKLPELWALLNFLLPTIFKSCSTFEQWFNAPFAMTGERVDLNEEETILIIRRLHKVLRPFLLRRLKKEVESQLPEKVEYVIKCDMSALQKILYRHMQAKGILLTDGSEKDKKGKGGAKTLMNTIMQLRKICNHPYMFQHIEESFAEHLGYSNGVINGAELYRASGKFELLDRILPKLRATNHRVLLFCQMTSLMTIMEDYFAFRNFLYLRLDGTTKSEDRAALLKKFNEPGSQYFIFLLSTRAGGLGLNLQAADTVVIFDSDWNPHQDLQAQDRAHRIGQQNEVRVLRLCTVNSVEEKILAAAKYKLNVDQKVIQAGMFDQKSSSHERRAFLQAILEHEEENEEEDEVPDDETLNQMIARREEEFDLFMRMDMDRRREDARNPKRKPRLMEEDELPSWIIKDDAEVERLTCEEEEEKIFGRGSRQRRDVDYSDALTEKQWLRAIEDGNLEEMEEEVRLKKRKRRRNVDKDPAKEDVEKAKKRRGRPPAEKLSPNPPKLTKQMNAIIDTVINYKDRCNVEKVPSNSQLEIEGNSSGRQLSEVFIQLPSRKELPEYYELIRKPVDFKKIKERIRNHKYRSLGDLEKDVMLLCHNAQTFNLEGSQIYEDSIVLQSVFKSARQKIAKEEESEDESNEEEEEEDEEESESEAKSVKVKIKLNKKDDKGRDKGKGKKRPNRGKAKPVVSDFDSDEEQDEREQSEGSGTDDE

Sample answers from the record:
- SMILES_DATA: "C[C@@H]1CN(c2cccc(-c3nc(NC(=O)CNC(=O)c4ccn(S(C)(=O)=O)c4)sc3F)c2)C[C@H](C)O1"
  IC50: "> 0.01 µM"
- SMILES_DATA: "COC[C@H](NC(=O)c1ccn(S(C)(=O)=O)c1)C(=O)Nc1nc(-c2ccc(F)c(N3C[C@@H](C)O[C@@H](C)C3)n2)cs1"
  IC50: "< 0.01 µM"
- SMILES_DATA: "CNc1cccc(-c2csc(NC(=O)CNC(=O)c3ccn(C(C)(C)C)c3)n2)c1"
  IC50: "> 0.01 µM"

QUERY: # IC50 lookup, item "COc1ccncc1-c1cccc(-c2csc(NC(=O)CNC(=O)c3ccn(C4(C)COC4)c3)n2)n1"
RESULT: > 0.01 µM

QUERY: # IC50 lookup, item "COC(C)(C)Cn1ccc(-c2cccc(-c3csc(NC(=O)CNC(=O)c4ccn(C(C)(C)C)c4)n3)c2)n1"
RESULT: > 0.01 µM

QUERY: # IC50 lookup, item "CCOc1cccc(-c2csc(NC(=O)CNC(=O)c3ccn(S(C)(=O)=O)c3)n2)c1"
RESULT: > 0.01 µM

QUERY: # IC50 lookup, item "CS(=O)(=O)n1ccc(C(=O)NCC(=O)Nc2nc(-c3cccc(-c4ccn(CC(=O)O)n4)c3)cs2)c1"
RESULT: > 0.01 µM

QUERY: # IC50 lookup, item "CC(C)(Oc1ccncc1)c1cccc(-c2csc(NC(=O)CNC(=O)c3ccn(S(C)(=O)=O)c3)n2)c1"
RESULT: > 0.1 µM

QUERY: # IC50 lookup, item "C[C@@H]1COCCN1c1cccc(-c2csc(NC(=O)CNC(=O)c3ccn(S(C)(=O)=O)c3)n2)c1"
RESULT: > 0.01 µM

QUERY: # IC50 lookup, item "CC(C)(C)n1ccc(C(=O)NCC(=O)Nc2nc(-c3cccc(N4CCOCC4)c3)cs2)c1"
RESULT: > 0.01 µM
